Tested on: Pseudomonas aeruginosa
Assay: Antibacterial activity against Pseudomonas aeruginosa 19-5 assessed as inhibition of bacterial growth measured after 18 to 20 hrs by broth microdilution method
Type: functional
Conditions: time 18-20 hrs

smiles_representation	readout_relation	MIC / µg/mL
CSCCSSCc1ccc(-c2ncc(C(=O)N[C@@H](CCN)C(=O)N(C)[C@@H]3C(=O)N[C@@H](C)C(=O)N[C@H](C(=O)NCC#N)Cc4ccc(OCCN)c(c4)-c4cc3ccc4OCCN)c(C)n2)cc1.O=C(O)C(F)(F)F.O=C(O)C(F)(F)F.O=C(O)C(F)(F)F.O=C(O)C(F)(F)F	=	16
Cc1nc(-c2ccc(C(C)(C)C)cc2)ncc1NC(=O)N[C@@H](CCN)C(=O)N(C)[C@@H]1C(=O)N[C@@H](C)C(=O)N[C@H](C(=O)NCC#N)Cc2ccc(OCCN)c(c2)-c2cc1ccc2OCCN.O=C(O)C(F)(F)F.O=C(O)C(F)(F)F.O=C(O)C(F)(F)F.O=C(O)C(F)(F)F	>	64
Cc1nc(-c2ccc(C(C)(C)C)cc2)ncc1C(=O)N[C@@H](CCN)C(=O)N(C)[C@@H]1C(=O)N[C@@H](C)C(=O)N[C@H](C(=O)NCC#N)Cc2ccc(OCCN)c(c2)-c2cc1ccc2OCCN.Cl.Cl.Cl.Cl	=	16
Cc1nc(-c2ccc(C3SCCS3)cc2)ncc1C(=O)N[C@@H](CCN)C(=O)N(C)[C@@H]1C(=O)N[C@@H](C)C(=O)N[C@H](C(=O)NCC#N)Cc2ccc(OCCN)c(c2)-c2cc1ccc2OCCN.O=C(O)C(F)(F)F.O=C(O)C(F)(F)F.O=C(O)C(F)(F)F.O=C(O)C(F)(F)F	=	64

###

Test system: Klebsiella pneumoniae
Assay: Antibacterial activity against Klebsiella pneumoniae 15-1 assessed as inhibition of bacterial growth measured after 18 to 20 hrs by broth microdilution method
Assay type: functional
Conditions: time 18-20 hrs
# if measured MIC < 0.5 µg/mL: rule met  # else: rule not met

smiles_representation	category
Cc1nc(-c2ccc([C@@H](C)SSC(C)(C)C)cc2)ncc1C(=O)N[C@@H](CCN)C(=O)N(C)[C@@H]1C(=O)N[C@@H](C)C(=O)N[C@H](C(=O)NCC#N)Cc2ccc(OCCN)c(c2)-c2cc1ccc2OCCN.O=C(O)C(F)(F)F.O=C(O)C(F)(F)F.O=C(O)C(F)(F)F.O=C(O)C(F)(F)F	rule met
Cc1nc(-c2ccc(C(C)(C)C)cc2)ncc1C(=O)N[C@@H](CCN)C(=O)N(C)[C@@H]1C(=O)N[C@@H](C)C(=O)N[C@H](NC(=O)NCC#N)Cc2ccc(OCCN)c(c2)-c2cc1ccc2OCCN.O=C(O)C(F)(F)F.O=C(O)C(F)(F)F.O=C(O)C(F)(F)F.O=C(O)C(F)(F)F	rule not met
Cc1nc(-c2ccc(CSSC(C)C)cc2)ncc1C(=O)N[C@@H](CCN)C(=O)N(C)[C@@H]1C(=O)N[C@@H](C)C(=O)N[C@H](C(=O)NCC#N)Cc2ccc(OCCN)c(c2)-c2cc1ccc2OCCN.O=C(O)C(F)(F)F.O=C(O)C(F)(F)F.O=C(O)C(F)(F)F.O=C(O)C(F)(F)F	rule met
Cc1nc(-c2ccc(C(C)(C)SSC(C)(C)C)cc2)ncc1C(=O)N[C@@H](CCN)C(=O)N(C)[C@@H]1C(=O)N[C@@H](C)C(=O)N[C@H](C(=O)NCC#N)Cc2ccc(OCCN)c(c2)-c2cc1ccc2OCCN.O=C(O)C(F)(F)F.O=C(O)C(F)(F)F.O=C(O)C(F)(F)F.O=C(O)C(F)(F)F	rule met
CSC(=O)CNC(=O)[C@@H]1Cc2ccc(OCCN)c(c2)-c2cc(ccc2OCCN)[C@H](N(C)C(=O)[C@H](CCN)NC(=O)c2cnc(-c3ccc(C(C)(C)C)cc3)nc2C)C(=O)N[C@@H](C)C(=O)N1.O=C(O)C(F)(F)F.O=C(O)C(F)(F)F.O=C(O)C(F)(F)F.O=C(O)C(F)(F)F	rule met
Cc1nc(-c2ccc(CSSC3CCCC3)cc2)ncc1C(=O)N[C@@H](CCN)C(=O)N(C)[C@@H]1C(=O)N[C@@H](C)C(=O)N[C@H](C(=O)NCC#N)Cc2ccc(OCCN)c(c2)-c2cc1ccc2OCCN.O=C(O)C(F)(F)F.O=C(O)C(F)(F)F.O=C(O)C(F)(F)F.O=C(O)C(F)(F)F	rule met
CSSCc1ccc(-c2ncc(C(=O)N[C@@H](CCN)C(=O)N(C)[C@@H]3C(=O)N[C@@H](C)C(=O)N[C@H](C(=O)NCC#N)Cc4ccc(OCCN)c(c4)-c4cc3ccc4OCCN)c(C)n2)cc1.O=C(O)C(F)(F)F.O=C(O)C(F)(F)F.O=C(O)C(F)(F)F.O=C(O)C(F)(F)F	rule met
CCCCCSSCc1ccc(-c2ncc(C(=O)N[C@@H](CCN)C(=O)N(C)[C@@H]3C(=O)N[C@@H](C)C(=O)N[C@H](C(=O)NCC#N)Cc4ccc(OCCN)c(c4)-c4cc3ccc4OCCN)c(C)n2)cc1.O=C(O)C(F)(F)F.O=C(O)C(F)(F)F.O=C(O)C(F)(F)F.O=C(O)C(F)(F)F	rule met
Cc1nc(-c2ccc(CCSSC(C)(C)C)cc2)ncc1C(=O)N[C@@H](CCN)C(=O)N(C)[C@@H]1C(=O)N[C@@H](C)C(=O)N[C@H](C(=O)NCC#N)Cc2ccc(OCCN)c(c2)-c2cc1ccc2OCCN.O=C(O)C(F)(F)F.O=C(O)C(F)(F)F.O=C(O)C(F)(F)F.O=C(O)C(F)(F)F	rule met
CSSC(C)(C)c1ccc(-c2ncc(C(=O)N[C@@H](CCN)C(=O)N(C)[C@@H]3C(=O)N[C@@H](C)C(=O)N[C@H](C(=O)NCC#N)Cc4ccc(OCCN)c(c4)-c4cc3ccc4OCCN)c(C)n2)cc1.O=C(O)C(F)(F)F.O=C(O)C(F)(F)F.O=C(O)C(F)(F)F.O=C(O)C(F)(F)F	rule met
Cc1nc(-c2ccc(C(C)(C)C)cc2)ncc1C(=O)N[C@@H](CCN)C(=O)N(C)[C@@H]1C(=O)NCCC(=O)N[C@H](C(=O)NCC#N)Cc2ccc(OCCN)c(c2)-c2cc1ccc2OCCN.Cl.Cl.Cl.Cl	rule not met
Cc1nc(-c2ccc(C(C)(C)C)cc2)ncc1C(=O)N[C@@H](CCN)C(=O)N(C)[C@H]1Cc2ccc(OCCN)c(c2)-c2cc(ccc2OCCN)C[C@@H](C(=O)NCC#N)NC(=O)[C@H](C)NC1=O.Cl.Cl.Cl.Cl	rule not met
Cc1nc(-c2ccc(CSSCC[Si](C)(C)C)cc2)ncc1C(=O)N[C@@H](CCN)C(=O)N(C)[C@@H]1C(=O)N[C@@H](C)C(=O)N[C@H](C(=O)NCC#N)Cc2ccc(OCCN)c(c2)-c2cc1ccc2OCCN.O=C(O)C(F)(F)F.O=C(O)C(F)(F)F.O=C(O)C(F)(F)F.O=C(O)C(F)(F)F	rule not met

###

Reported inhibition at 24 h, 100 µM values for a set of molecules
Assay: Cytotoxicity against HEK293T cells assessed as inhibition of cell growth at 100 uM incubated for 24 hrs by CCK8 method relative to control
Type: toxicity, cell-based, HEK-293T
Settings: human

smiles_representation	endpoint_unit	inhibition at 24 h, 100 µM
CSSC(C)(C)c1ccc(-c2ncc(C(=O)N[C@@H](CCN)C(=O)N(C)[C@@H]3C(=O)N[C@@H](C)C(=O)N[C@H](C(=O)NCC#N)Cc4ccc(OCCN)c(c4)-c4cc3ccc4OCCN)c(C)n2)cc1.O=C(O)C(F)(F)F.O=C(O)C(F)(F)F.O=C(O)C(F)(F)F.O=C(O)C(F)(F)F	%	48.1
Cc1nc(-c2ccc(CSSC(C)(C)C)cc2)ncc1C(=O)N[C@@H](CCN)C(=O)N(C)[C@@H]1C(=O)N[C@@H](C)C(=O)N[C@H](C(=O)O)Cc2ccc(OCCN)c(c2)-c2cc1ccc2OCCN.O=C(O)C(F)(F)F.O=C(O)C(F)(F)F.O=C(O)C(F)(F)F.O=C(O)C(F)(F)F	%	36.6
Cc1nc(-c2ccc(CSSCC(C)C)cc2)ncc1C(=O)N[C@@H](CCN)C(=O)N(C)[C@@H]1C(=O)N[C@@H](C)C(=O)N[C@H](C(=O)NCC#N)Cc2ccc(OCCN)c(c2)-c2cc1ccc2OCCN.O=C(O)C(F)(F)F.O=C(O)C(F)(F)F.O=C(O)C(F)(F)F.O=C(O)C(F)(F)F	%	42.7

###

Tested on: Klebsiella pneumoniae
Test: Antibacterial activity against Klebsiella pneumoniae 15-1 assessed as inhibition of bacterial growth measured after 18 to 20 hrs by broth microdilution method
Format: functional
Settings: time 18-20 hrs
Reported MIC values for a set of compounds
parameter_measured: MIC (µg/mL)

smiles_representation	parameter_measured	endpoint_unit	readout_relation	measurement
Cc1nc(-c2ccc(C(C)(C)C)cc2)ncc1C(=O)N[C@@H](CCN)C(=O)N(C)[C@@H]1C(=O)N[C@@H](C)C(=O)N[C@H](C(=O)NCC#N)c2ccc(OCCN)c(c2)-c2cc1ccc2OCCN.Cl.Cl.Cl.Cl	MIC	µg/mL	=	64
Cc1nc(-c2ccc(SSC(C)(C)C)cc2)ncc1C(=O)N[C@@H](CCN)C(=O)N(C)[C@@H]1C(=O)N[C@@H](C)C(=O)N[C@H](C(=O)NCC#N)Cc2ccc(OCCN)c(c2)-c2cc1ccc2OCCN.O=C(O)C(F)(F)F.O=C(O)C(F)(F)F.O=C(O)C(F)(F)F.O=C(O)C(F)(F)F	MIC	µg/mL	≤	0.03
COCCSSCc1ccc(-c2ncc(C(=O)N[C@@H](CCN)C(=O)N(C)[C@@H]3C(=O)N[C@@H](C)C(=O)N[C@H](C(=O)NCC#N)Cc4ccc(OCCN)c(c4)-c4cc3ccc4OCCN)c(C)n2)cc1.O=C(O)C(F)(F)F.O=C(O)C(F)(F)F.O=C(O)C(F)(F)F.O=C(O)C(F)(F)F	MIC	µg/mL	=	1
Cc1nc(-c2ccc(C(C)(C)C)cc2)ncc1CN[C@@H](CCN)C(=O)N(C)[C@@H]1C(=O)N[C@@H](C)C(=O)N[C@H](C(=O)NCC#N)Cc2ccc(OCCN)c(c2)-c2cc1ccc2OCCN.O=C(O)C(F)(F)F.O=C(O)C(F)(F)F.O=C(O)C(F)(F)F.O=C(O)C(F)(F)F	MIC	µg/mL	=	16

Reference source: ChEMBL document CHEMBL5518248
